assay: Salt screening (slurry crystallization); format: physicochemical; details: ACN; XRPD
MEASURED PROPERTY: Polymorph obtained in salt screening

molecule="COc1cc(C(F)(F)F)c(OC)cc1[C@@H]1CCCNC1.N[C@@H](CC(=O)O)C(=O)O [L-aspartate salt Polymorph A]" reading="Polymorph A"
molecule="COc1cc(C(F)(F)F)c(OC)cc1[C@@H]1CCCNC1.COc1cc(C(F)(F)F)c(OC)cc1[C@@H]1CCCNC1.O=C(O)CCC(=O)O [Hemi-succinate salt Polymorph B]" reading="Polymorph A"
molecule="CC(=O)O.COc1cc(C(F)(F)F)c(OC)cc1[C@@H]1CCCNC1 [Acetate salt Polymorph A]" reading="Polymorph A"
